All values here come from patent US11787785B2.

molecular target: WIZ protein (HiBit-WIZ fusion protein) (Homo sapiens, UniProt O95785+Q96SW2); construct: expressed in transfected cells; assay: Quantification of WIZ protein levels in HiBit tag fusion protein assay (WIZ HiBit assay in 293T cells); assay type: cell-based; settings: WIZ HiBit assay in 293T cells; 10-point, 5-fold dose response, highest concentration 25 μM, about 18 hours; read-out: WIZ AC50
Sequence (O95785 whole entry, the tested form may be a part): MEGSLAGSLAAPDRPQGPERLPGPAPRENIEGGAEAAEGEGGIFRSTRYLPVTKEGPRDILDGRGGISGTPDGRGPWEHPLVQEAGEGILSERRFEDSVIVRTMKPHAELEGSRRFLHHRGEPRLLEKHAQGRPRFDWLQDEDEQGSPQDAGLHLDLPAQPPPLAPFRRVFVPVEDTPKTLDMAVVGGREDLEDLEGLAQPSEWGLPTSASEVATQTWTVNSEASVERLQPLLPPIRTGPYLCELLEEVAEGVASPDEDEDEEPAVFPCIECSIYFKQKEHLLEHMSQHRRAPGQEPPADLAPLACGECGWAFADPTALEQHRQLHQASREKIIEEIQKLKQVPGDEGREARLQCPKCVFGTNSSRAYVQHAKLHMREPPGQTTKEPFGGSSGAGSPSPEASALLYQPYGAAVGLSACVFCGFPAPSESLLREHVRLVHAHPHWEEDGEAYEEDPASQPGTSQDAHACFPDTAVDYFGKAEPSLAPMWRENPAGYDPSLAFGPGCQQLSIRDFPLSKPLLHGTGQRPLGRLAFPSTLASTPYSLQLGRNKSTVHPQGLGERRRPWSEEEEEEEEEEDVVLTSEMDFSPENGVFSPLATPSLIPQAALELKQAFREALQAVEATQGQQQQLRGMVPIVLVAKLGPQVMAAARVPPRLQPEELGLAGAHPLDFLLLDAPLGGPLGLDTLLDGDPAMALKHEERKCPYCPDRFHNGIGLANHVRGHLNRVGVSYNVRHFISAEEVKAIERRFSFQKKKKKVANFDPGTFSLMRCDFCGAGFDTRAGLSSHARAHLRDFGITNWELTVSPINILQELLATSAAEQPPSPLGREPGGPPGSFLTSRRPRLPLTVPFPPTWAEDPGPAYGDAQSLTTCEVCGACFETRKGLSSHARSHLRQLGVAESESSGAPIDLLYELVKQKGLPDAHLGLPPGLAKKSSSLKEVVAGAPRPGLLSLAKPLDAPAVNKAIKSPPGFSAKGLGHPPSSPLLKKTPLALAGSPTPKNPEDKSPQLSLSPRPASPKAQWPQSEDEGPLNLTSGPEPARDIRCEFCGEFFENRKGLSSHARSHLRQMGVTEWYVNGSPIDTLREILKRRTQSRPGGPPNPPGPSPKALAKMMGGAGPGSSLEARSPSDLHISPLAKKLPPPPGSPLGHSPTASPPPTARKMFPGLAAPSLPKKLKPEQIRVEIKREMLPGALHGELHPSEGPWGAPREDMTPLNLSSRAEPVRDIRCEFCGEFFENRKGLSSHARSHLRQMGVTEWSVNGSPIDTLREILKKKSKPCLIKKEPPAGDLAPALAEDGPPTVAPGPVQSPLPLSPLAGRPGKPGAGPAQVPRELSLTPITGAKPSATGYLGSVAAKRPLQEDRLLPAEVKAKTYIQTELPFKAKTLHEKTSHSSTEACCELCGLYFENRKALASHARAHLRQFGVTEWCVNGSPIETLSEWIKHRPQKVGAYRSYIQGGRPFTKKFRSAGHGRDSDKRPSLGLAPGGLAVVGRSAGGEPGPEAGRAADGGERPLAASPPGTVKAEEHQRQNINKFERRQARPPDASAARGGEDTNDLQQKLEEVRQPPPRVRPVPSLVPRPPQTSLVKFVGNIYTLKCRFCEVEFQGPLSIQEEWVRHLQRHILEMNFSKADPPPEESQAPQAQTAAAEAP
Sequence (Q96SW2 whole entry, the tested form may be a part): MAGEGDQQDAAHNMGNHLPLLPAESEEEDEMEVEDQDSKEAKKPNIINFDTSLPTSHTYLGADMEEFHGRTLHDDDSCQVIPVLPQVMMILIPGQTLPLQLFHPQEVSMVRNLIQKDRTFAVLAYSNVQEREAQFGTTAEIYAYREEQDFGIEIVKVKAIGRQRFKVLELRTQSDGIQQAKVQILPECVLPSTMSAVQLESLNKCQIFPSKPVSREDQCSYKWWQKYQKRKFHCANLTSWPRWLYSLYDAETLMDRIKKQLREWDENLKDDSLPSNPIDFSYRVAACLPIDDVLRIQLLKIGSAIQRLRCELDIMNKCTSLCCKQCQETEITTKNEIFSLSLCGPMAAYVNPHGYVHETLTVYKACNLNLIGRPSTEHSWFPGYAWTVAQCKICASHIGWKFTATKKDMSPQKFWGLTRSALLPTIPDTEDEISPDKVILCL
Sequence (Q16531 whole entry partner, the tested form may be a part): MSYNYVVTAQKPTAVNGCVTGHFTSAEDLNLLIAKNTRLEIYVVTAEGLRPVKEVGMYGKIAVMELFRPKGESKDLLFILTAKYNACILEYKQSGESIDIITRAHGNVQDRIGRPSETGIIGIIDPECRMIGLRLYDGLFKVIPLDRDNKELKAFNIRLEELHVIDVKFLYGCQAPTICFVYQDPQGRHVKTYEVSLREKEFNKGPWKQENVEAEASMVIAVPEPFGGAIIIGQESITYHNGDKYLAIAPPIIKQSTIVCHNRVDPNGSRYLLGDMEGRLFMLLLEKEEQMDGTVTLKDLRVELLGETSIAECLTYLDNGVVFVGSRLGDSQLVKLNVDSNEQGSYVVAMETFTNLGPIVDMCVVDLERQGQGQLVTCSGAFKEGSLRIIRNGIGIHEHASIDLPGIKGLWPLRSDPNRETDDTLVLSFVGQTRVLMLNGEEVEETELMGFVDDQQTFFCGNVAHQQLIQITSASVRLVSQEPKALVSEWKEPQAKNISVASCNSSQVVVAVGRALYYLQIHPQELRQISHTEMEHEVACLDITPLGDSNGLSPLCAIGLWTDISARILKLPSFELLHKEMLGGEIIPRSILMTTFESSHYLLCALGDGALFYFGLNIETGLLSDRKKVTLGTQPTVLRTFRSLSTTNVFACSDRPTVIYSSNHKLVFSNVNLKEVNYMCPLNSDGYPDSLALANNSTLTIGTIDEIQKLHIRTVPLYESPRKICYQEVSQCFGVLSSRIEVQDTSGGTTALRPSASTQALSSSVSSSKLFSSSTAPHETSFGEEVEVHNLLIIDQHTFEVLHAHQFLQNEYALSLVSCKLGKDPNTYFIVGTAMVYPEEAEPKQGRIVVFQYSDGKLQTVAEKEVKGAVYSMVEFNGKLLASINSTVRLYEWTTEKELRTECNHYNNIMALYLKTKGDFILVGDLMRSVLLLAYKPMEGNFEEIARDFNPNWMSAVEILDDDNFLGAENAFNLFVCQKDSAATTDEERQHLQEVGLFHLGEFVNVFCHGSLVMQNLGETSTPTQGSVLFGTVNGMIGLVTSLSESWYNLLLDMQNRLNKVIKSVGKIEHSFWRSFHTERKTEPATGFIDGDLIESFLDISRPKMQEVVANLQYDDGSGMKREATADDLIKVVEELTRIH
Reported DC50 values follow for various compounds

Solved cases below.
[[record]]
smi = "CC(C)(C1CCOCC1)N1CCN(Cc2ccn3ncc(N4CCC(=O)NC4=O)c3c2)CC1"
reported = "199 nM"

[[record]]
smi = "O=C1CCN(c2cnn3ccc(CN4CCN(CC(F)(F)C(F)F)CC4)cc23)C(=O)N1"
reported = "771 nM"

[[record]]
smi = "CO[C@H]1C[C@H](CN2CCN(Cc3ccn4ncc(N5CCC(=O)NC5=O)c4c3)C[C@@H]2C)C1"
reported = "61 nM"

[[record]]
smi = "C[C@H]1CN(CC2CC(F)(F)C2)CCN1Cc1ccn2ncc(N3CCC(=O)NC3=O)c2c1"
reported = "1230 nM"


In the following, a different compound is considered.
Lookup: What does the record list as DC50 for `C[C@H]1C[C@H](Cc2ccn3ncc(N4CCC(=O)NC4=O)c3c2)CCN1CC(F)F` ?
Found: 32 nM
